Observed Tissue Culture Stabilities, Relative Half-Life, +FCS. B95-8 values for B95-8 cells are listed in what follows.
// no unit, no text: just the number

Q. So what does the record say about Tissue Culture Stabilities, Relative Half-Life, +FCS. B95-8 for TGACTTAGCTGCAT [14-Me^6b-3] (chemistry not given here) ?
A. 30

# evaluate next
Q. So what does the record say about Tissue Culture Stabilities, Relative Half-Life, +FCS. B95-8 for TGACTTAGCTGCAT [14-Me^5b-3] (chemistry not given here) ?
A. 30
